meta.source: patent US20210206850A1

# TARGET UNDER TEST: T1, human CD47ECD mouse Fc protein (human, UniProt Q08722 19-139, limits assumed)
# T1 construct: extracellular domain; also called HuCD47ECD muFc; bivalent CD47ECD muFc protein; not shown: mouse Fc
# T1 sequence (Q08722 19-139 limits assumed): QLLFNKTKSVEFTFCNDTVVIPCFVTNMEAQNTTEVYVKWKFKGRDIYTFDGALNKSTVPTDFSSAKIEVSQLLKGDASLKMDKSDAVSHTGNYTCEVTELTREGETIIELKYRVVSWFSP
# ASSAY COMMENT: SPR (Biacore 3000); antibody captured on anti-human Fc chip, bivalent HuCD47ECD muFc injected
METRIC: koff (s⁻¹)
Entry rule: numbers only, all in s⁻¹.

Short answer for D36S4 mouse/human chimeric anti-human CD47 antibody (antibody, V domains shown, also called chimeric D36S4 antibody; D36S4 H/L) VH: EVKLEESGGGLVQPGGSMKLSCVASGFTFSRYWMNWVRQSPDKGLEWVAQIRLKSDNYETHYAESVKGRFTISRDDSKSSVYLQMNNLRAEDTGIYYCIEEGGYYVPFAYWGQGTLVTVSA VL: DIVVSQSPSSLAVSAGEKVTMSCKSSQSLFKSRTRKNYLAWYQQRPGQSPKLLIYWASIRESGVPDRFTGSGSGTEFTLTISSVQAEDLAVYYCKQSYYLLTFGAGTKLELK : koff was 1.18e-05
